# System: LOX IMVI melanoma
# test_method_notes: NCI tumour cell line growth inhibition, 48 h; in the data active means GI50 below about 0.43 µM; inactive means the rest
Labels: active, inactive

smiles_code | classification
COc1cccc2c1-c1c(c3ccc([N+](=O)[O-])cc3c(=O)n1CCCN)C2=O | inactive
O=C(O)c1cn(C2CC2)c2cc(N3CCN(C(=O)Nc4nc(-c5ccccc5)cs4)CC3)c(F)cc2c1=O | active
COc1ccc2c(c1)CC[C@@H]1[C@@H]2CC[C@]2(C)[C@@H](NC(=O)/C=C/c3ccc(O)c(O)c3)CC[C@@H]12 | inactive
Cc1cc(S(=O)(=O)/N=C/N(C)C)c(SC(=O)c2ccc(Cl)cc2)cc1Cl | inactive
COc1ccc(S(=O)(=O)NC2=NCCN2C(=S)SN2CCn3c2nsc3=S)cc1 | inactive
N[C@@H]1C(=O)N2C(C(=O)OC(c3ccccc3)c3ccccc3)=C(CCl)CS[C@H]12 | inactive
CCOC(=O)c1c(C)n(Cc2ccccc2)c2c1cc(O)c1[nH]c(Cc3ccccc3)nc12 | inactive
CCOC(=O)c1c(Br)c(-c2ccc(OC)cc2)c(Br)n1C | inactive
CN(Cc1cccc(F)c1)c1ccc(CO)c(Cl)c1 | inactive

----------
# Test system: RPMI-8226 leukemia
# test_method_notes: NCI tumour cell line growth inhibition, 48 h; in the data active means GI50 below about 0.43 µM; inactive means the rest
Labels: active, inactive

compound | classification
COc1ccc(C(c2ccc(OCCN(C)C)cc2)c2cc3ccccc3c3ccccc23)cc1 (centres undefined) | inactive
Cc1ccc(/C=C2\CN(C(=O)C(Cl)Cl)C/C(=C\c3ccc(C)cc3)C2=O)cc1 | active
COc1cc(-c2cc(-c3ccc(Nc4ccnc5cc(Cl)ccc45)cc3)nc(N3CCOCC3)n2)cc(OC)c1OC | inactive
Cn1nc(-c2ccc(Cl)cc2)nc2c(=O)n(C)c(=O)nc1-2 | inactive
Cc1cc(S(=O)(=O)/N=C/N(C)C)c(SC(=O)c2ccc(Cl)cc2)cc1Cl | inactive
COc1ccc(S(=O)(=O)NC2=NCCN2C(=S)SN2CCn3c2nsc3=S)cc1 | inactive
CC(=O)c1c(CN(C)c2ccccc2)n([O-])c2ccccc2[n+]1=O | inactive
COc1ccc2c(C3(c4cn(C)c5cc(OC)ccc45)C(=O)Nc4ccc(Cl)cc43)cn(C)c2c1 | inactive
CCOc1cc(Br)c(C(C)NC(=O)c2cccc(OC)c2)cc1OCC (centres undefined) | inactive
COc1cccc2c1-c1c(c3ccc([N+](=O)[O-])cc3c(=O)n1CCCN)C2=O | inactive
C=C1C(=O)O[C@H]2[C@H]1CC/C(COC(=O)CCSCCC(=O)OC/C1=C/CC[C@@]3(C)O[C@H]3[C@H]3OC(=O)C(=C)[C@@H]3CC1)=C\CC[C@@]1(C)O[C@@H]21 | active
CCN1C(=O)CCCc2c1ccc(Nc1ncc(Cl)c(NC3[C@@H](C(N)=O)[C@@H]4C=C[C@H]3C4)n1)c2OC (some centres undefined) | inactive
COc1ccccc1C1=C(Nc2ccccc2)C(=O)NC1=O | inactive
COc1cccc(/C=N/NC(=S)NC2CC3CCC2C3)c1O (centres undefined) | inactive
COc1ccc(/C=c2\sc3n(c2=O)C2C(NN=3)N(C)C(=O)N2C)cc1 (centres undefined) | inactive
COc1cccc(-c2ccc3c(c2)C2CCN(Cc4ccccc4)C3C2)c1 (centres undefined) | inactive
FC(F)(F)c1ccc(-c2cnc(-n3cc(COCCN4CCCCC4)nn3)nc2NC2CCCCCC2)cc1 | inactive
Nc1cc(O)ccc1N=Nc1ccc(-c2nc3ccccc3[nH]2)cc1 | inactive
CC(C)N1CCN(Cc2ccc3c(NNC(=O)c4ccccc4)nc4cc(F)ccc4n23)CC1 | inactive

----------
# Test system: SK-MEL-2 melanoma
# test_method_notes: NCI tumour cell line growth inhibition, 48 h
Known TGI of a selection of compounds

compound | op | TGI [µM]
CC(=O)c1ccccc1NCC(=O)Nn1cnc2ccc(S(=O)(=O)Nc3ccccc3C(C)=O)cc2c1=O | > | 100
CCCCCCNC(=O)CCC(NC(=O)c1ccc(N(C)Cc2cnc3nc(N)nc(N)c3n2)cc1)C(=O)NCCCCCC (centres undefined) | > | 100
COc1cc(C2c3cc4c(cc3OC(Nc3ccccc3)C2C)OCO4)cc(OC)c1O (centres undefined) | = | 8.59
COc1ccc2c(C3(c4cn(C)c5cc(OC)ccc45)C(=O)Nc4ccc(Cl)cc43)cn(C)c2c1 | = | 6.55
N#Cc1c(Br)n(C2OC(CO)C(O)C2O)c2ncnc(N)c12 (centres undefined) | = | 14.1
C=CCN1C(=O)/C(=C/c2ccco2)N=C1SC1OC(COC(C)=O)C(OC(C)=O)C(OC(C)=O)C1OC(C)=O (centres undefined) | > | 100
Cc1ccc(C(NC(=O)c2ccccc2)c2ccc3cccnc3c2O)cc1 (centres undefined) | = | 10.3
CC1(C)C(CCO)CC1n1cc(I)c(=O)[nH]c1=O (centres undefined) | > | 100
O=c1oc2ccc([N+](=O)[O-])cc2c(Nc2ccc3c(c2)Sc2ccccc2O3)c1[N+](=O)[O-] | = | 40.4

----------
# Tested on: UO-31 renal
# test_method_notes: NCI tumour cell line growth inhibition, 48 h
Known TGI of a selection of compounds
result_type: TGI

smiles_code | result_type | result
CSCCCS/C1=C/CCCCCCCCCC1 | TGI | > 100 µM
CS(=O)(=O)NNS(=O)(=O)c1ccccc1 | TGI | > 100 µM
CCOC(=O)c1cc(I)c(-c2cc(C)no2)n1C | TGI | > 100 µM
CN(C)c1ccc(/C=C/c2ccc(/C=C/c3ccc(N(C)C)cc3)cc2)cc1 | TGI | > 100 µM
NC(=O)c1c([N+](=O)[O-])cc(C(F)(F)F)cc1[N+](=O)[O-] | TGI | > 100 µM
COc1ccccc1C1=C(Nc2ccccc2)C(=O)NC1=O | TGI | > 25 µM

----------
Known TGI of a selection of compounds
# Tested on: SF-268 CNS
# test_method_notes: NCI tumour cell line growth inhibition, 48 h
result_type: TGI (µM)

compound | result_type | op | result
COC(=O)/C(=N/Nc1cccc(Cl)c1)C(C(=O)C(=O)Nc1cccc(Cl)c1C)c1nc2ccccc2nc1C (centres undefined) | TGI | > | 100
COc1cc([C@@H]2c3cc4c(cc3[C@@H](Nc3ccccc3C(=O)c3ccccc3)[C@H]3COC(=O)[C@H]23)OCO4)cc(OC)c1OC | TGI | > | 100
COC1=C(C)C(=O)c2c(c(CCCl)c3n2CCC3O)C1=O (centres undefined) | TGI | = | 20
CC1=CC(=O)C(C(C)C)=CC1=Nc1cc(Br)c(O)c(Br)c1 | TGI | = | 17.2
Oc1ccc(-c2nc3ccc4[nH]ncc4c3c3c2CCCC3)c(F)c1 | TGI | = | 14.7
NC1=NC(c2ccc(Cl)cc2)N(c2ccc(S(N)(=O)=O)cc2)C(N)=N1 (centres undefined) | TGI | > | 100
COc1ccc(C(c2ccc(OCCN(C)C)cc2)c2cc3ccccc3c3ccccc23)cc1 (centres undefined) | TGI | = | 3.26
CCO[C@@]1(COCc2ccccc2)OC(=O)C[C@@H]1N1C(=O)OC[C@@H]1c1ccccc1 | TGI | > | 100
O=C(O)C[C@@H]1[C@@H](O)[C@@H](O)CN2C(=O)c3ccccc3[C@H]12 | TGI | > | 100

----------
# Test system: SK-MEL-28 melanoma
# test_method_notes: NCI tumour cell line growth inhibition, 48 h
result_type: TGI

compound | system_name | result
CCn1c(SC(C)C(=O)c2c(C)n(C)n(-c3ccccc3)c2=O)nc2ccccc2c1=O (stereo unspecified) | SK-MEL-28 melanoma | > 100 µM
CCCC(C)n1c(C)nc2c1C(=O)c1ccccc1C2=O (stereo unspecified) | SK-MEL-28 melanoma | > 100 µM
COc1ccc(/C=C2\CCS(=O)(=O)c3ccccc3C2=O)cc1OC | SK-MEL-28 melanoma | > 100 µM
O=C1c2ccccc2C(=O)c2sc(Nc3ccccc3C(F)(F)F)nc21 | SK-MEL-28 melanoma | 30.3 µM
C=C1C(=O)O[C@H]2[C@H]1CC/C(COC(=O)CCSCCC(=O)OC/C1=C/CC[C@@]3(C)O[C@H]3[C@H]3OC(=O)C(=C)[C@@H]3CC1)=C\CC[C@@]1(C)O[C@@H]21 | SK-MEL-28 melanoma | 2.86 µM
C=CC(OC(C)=O)c1ccc(OC(=O)C(C)C)c(OC)c1 (stereo unspecified) | SK-MEL-28 melanoma | 28.8 µM
COc1ccc2c(C3(c4cn(C)c5cc(OC)ccc45)C(=O)Nc4ccc(Cl)cc43)cn(C)c2c1 | SK-MEL-28 melanoma | > 100 µM
O=C(CC1(O)C(=O)Nc2ccc(Br)cc21)c1ccc(Cl)cc1Cl (stereo unspecified) | SK-MEL-28 melanoma | > 100 µM
NC(=O)c1c([N+](=O)[O-])cc(C(F)(F)F)cc1[N+](=O)[O-] | SK-MEL-28 melanoma | > 100 µM
Cn1c(=O)c(NC(=O)C(Cl)(Cl)Cl)nc2ccccc21 | SK-MEL-28 melanoma | > 100 µM
O=[N+]([O-])c1ccc(Cl)c(C2CC(c3cccc4ccccc34)=Nc3ccccc3S2)c1 (stereo unspecified) | SK-MEL-28 melanoma | > 84.2 µM
N#Cc1c(Br)n(C2OC(CO)C(O)C2O)c2ncnc(N)c12 (stereo unspecified) | SK-MEL-28 melanoma | 12.7 µM
CC(C)CCCC(C)[C@H]1CC[C@H]2[C@@H]3CC[C@H]4C[C@@H](CCC=C(c5cc(Cl)c(O)c(C(=O)OC(C)C)c5)c5cc(Cl)c(O)c(C(=O)OC(C)C)c5)CC[C@]4(C)[C@H]3CC[C@]12C (stereo partly specified) | SK-MEL-28 melanoma | > 50 µM
Clc1ccc(-c2csc(Nc3cccc(-c4csc(-c5ccccc5)n4)c3)n2)cc1 | SK-MEL-28 melanoma | 15.6 µM
CC(=O)c1ccccc1NCC(=O)Nn1cnc2ccc(S(=O)(=O)Nc3ccccc3C(C)=O)cc2c1=O | SK-MEL-28 melanoma | > 100 µM
FC(F)(F)c1ccc(-c2cnc(-n3cc(COCCN4CCCCC4)nn3)nc2NC2CCCCCC2)cc1 | SK-MEL-28 melanoma | 6.99 µM
